Reported SILAC ratio, Ssr1 values for a set of compounds
Molecular target: AEA-DA lipid probe targets in Neuro2a cells (Mus musculus)
Sequence (Q9CY50 22-286): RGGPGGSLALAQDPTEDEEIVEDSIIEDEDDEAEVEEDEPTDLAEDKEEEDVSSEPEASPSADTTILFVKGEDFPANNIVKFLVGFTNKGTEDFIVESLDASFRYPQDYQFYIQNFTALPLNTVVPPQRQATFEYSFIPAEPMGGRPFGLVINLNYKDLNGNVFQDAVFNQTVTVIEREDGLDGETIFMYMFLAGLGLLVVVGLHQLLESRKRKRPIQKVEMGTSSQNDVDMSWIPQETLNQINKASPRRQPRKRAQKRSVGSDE
Conditions: competitor 25 μM

# annotated cases, reported SILAC ratio, Ssr1 shown
INSERT INTO results (compound, target_or_test_system, observed_measurement) VALUES
  ('CN1CCN(C(=O)c2[nH]c3ccc([N+](=O)[O-])cc3c2-c2ccccc2)CC1 [MJN228]', 'AEA-DA lipid probe targets in Neuro2a cells (Mus musculus)', 1.7),
  ('O=C(/C=C/c1cccnc1)NCCCCC1CCN(C(=O)c2ccccc2)CC1 [FK-866, reference compound]', 'AEA-DA lipid probe targets in Neuro2a cells (Mus musculus)', 1.3),
  ('CN1CCN(C(=O)c2c(-c3ccccc3)c3cc([N+](=O)[O-])ccc3n2C)CC1 [KML110]', 'AEA-DA lipid probe targets in Neuro2a cells (Mus musculus)', 1.7);

Next, consider the following compound.
stdin: Fill in reported SILAC ratio, Ssr1 for this entry: C=CCN(C)CCCCCCOc1ccc(C(=O)c2ccc(Br)cc2)c(F)c1 [Ro 48-8071, reference compound]
stdout: 1.3
